# pIC50 annotations
Target: His-tagged human recombinant kinase full-length Akt1 (Homo sapiens (Human))
Sequence (P31749 whole entry): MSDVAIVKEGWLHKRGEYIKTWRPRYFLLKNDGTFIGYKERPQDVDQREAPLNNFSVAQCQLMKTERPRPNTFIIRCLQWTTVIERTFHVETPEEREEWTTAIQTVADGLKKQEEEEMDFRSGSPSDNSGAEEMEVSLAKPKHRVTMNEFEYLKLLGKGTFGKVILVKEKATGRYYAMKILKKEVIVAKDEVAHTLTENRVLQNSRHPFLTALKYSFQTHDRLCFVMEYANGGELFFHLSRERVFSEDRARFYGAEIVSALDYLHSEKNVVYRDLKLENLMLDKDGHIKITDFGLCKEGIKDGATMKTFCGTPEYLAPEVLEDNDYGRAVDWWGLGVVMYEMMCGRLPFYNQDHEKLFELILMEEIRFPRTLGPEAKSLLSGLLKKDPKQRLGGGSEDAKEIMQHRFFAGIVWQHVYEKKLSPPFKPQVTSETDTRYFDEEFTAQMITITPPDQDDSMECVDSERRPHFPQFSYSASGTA
Experiment: Akt1 kinase assay (TR-FRET)
Conditions: 10 μM ATP; median
pIC50: −log10 of the molar value. Structures can show the parent of a compound that is named as a salt.
ASSAY READOUT: pIC50

1. N#Cc1ccc(-c2cnc3cc(-c4ccccc4)c(-c4ccc(C5(N)CCC5)cc4)nn23)cc1 | 6.89
2. NC(=O)c1cccc(-c2cnc3cc(-c4ccccc4)c(-c4ccc(C5(N)CCC5)cc4)nn23)c1 [Example 4-11, hydrochloride] | 7.89
3. COC(=O)c1ccc(-c2cnc3cc(-c4ccccc4)c(-c4ccc(C5(N)CCC5)cc4)nn23)cn1 | 7.72
4. Cc1ccc(-c2cnc3cc(-c4ccccc4)c(-c4ccc(C5(N)CCC5)cc4)nn23)cc1 | 7.36
5. NC(=O)c1ccc(-c2cnc3cc(-c4ccccc4)c(-c4ccc(C5(N)CCC5)cc4)nn23)cc1 [Example 4-10, hydrochloride] | 7.57
6. CS(=O)(=O)c1ccc(-c2cnc3cc(-c4ccccc4)c(-c4ccc(C5(N)CCC5)cc4)nn23)cc1 | 6.96
7. Cc1cnc2cc(-c3ccccc3)c(-c3ccc(C4(N)CCC4)cc3)nn12 | 6.36
8. COc1cncc(-c2cnc3cc(-c4ccccc4)c(-c4ccc(C5(N)CCC5)cc4)nn23)c1 | 8.30
9. NC1(c2ccc(-c3nn4c(-c5ccc(F)cc5)cnc4cc3-c3ccccc3)cc2)CCC1 | 7.44
10. NC1(c2ccc(-c3nn4c(Br)cnc4cc3-c3ccccc3)cc2)CCC1 [Example 4-8, hydrochloride] | 7.13
11. NC1(c2ccc(-c3nn4c(-c5cccc(CO)c5)cnc4cc3-c3ccccc3)cc2)CCC1 | 8.22
12. Cc1nc2cc(-c3ccccc3)c(-c3ccc(C4(N)CCC4)cc3)nn2c1-c1cccc(C(N)=O)c1 | 4.82
13. COC(=O)/C=C/c1c(C)nc2cc(-c3ccccc3)c(-c3ccc(C4(N)CCC4)cc3)nn12 | 5.22
14. NC1(c2ccc(-c3nn4c(-c5ccn[nH]5)cnc4cc3-c3ccccc3)cc2)CCC1 | 7.96
15. NC(=O)/C=C/c1cnc2cc(-c3ccccc3)c(-c3ccc(C4(N)CCC4)cc3)nn12 | 7.42
16. NC1(c2ccc(-c3nn4c(-c5ccc(CO)cc5)cnc4cc3-c3ccccc3)cc2)CCC1 | 7.72
17. Cc1nc2cc(-c3ccccc3)c(-c3ccc(C4(N)CCC4)cc3)nn2c1-c1ccc(F)cc1 | 5.35
18. N#Cc1cccc(-c2cnc3cc(-c4ccccc4)c(-c4ccc(C5(N)CCC5)cc4)nn23)c1 | 8.30
19. Cc1nc2cc(-c3ccccc3)c(-c3ccc(C4(N)CCC4)cc3)nn2c1-c1cn[nH]c1 | 5.32
20. Cc1cc(-c2c(C)nc3cc(-c4ccccc4)c(-c4ccc(C5(N)CCC5)cc4)nn23)[nH]n1 | 4.83
21. CCOC(=O)c1cncc(-c2cnc3cc(-c4ccccc4)c(-c4ccc(C5(N)CCC5)cc4)nn23)c1 | 8.15
22. Cc1nc2cc(-c3ccccc3)c(-c3ccc(C4(N)CCC4)cc3)nn2c1/C=C/C(N)=O | 4.74
23. NC1(c2ccc(-c3nn4c(-c5ccc(F)cc5)c(Br)nc4cc3-c3ccccc3)cc2)CCC1 | 7.17
24. C=Cc1cnc2cc(-c3ccccc3)c(-c3ccc(C4(N)CCC4)cc3)nn12 | 7.36
25. NC1(c2ccc(-c3nn4ccnc4cc3-c3ccccc3)cc2)CCC1 | 6.61
26. NC1(c2ccc(-c3nn4c(-c5ccc(O)nc5)cnc4cc3-c3ccccc3)cc2)CCC1 | 6.84
27. Cc1nc2cc(-c3ccccc3)c(-c3ccc(C4(N)CCC4)cc3)nn2c1-c1ccn[nH]1 | 5.56
28. Cc1nc2cc(-c3ccccc3)c(-c3ccc(C4(N)CCC4)cc3)nn2c1-c1ccc(F)c(CO)c1 | 5.00
29. Cc1cn2nc(-c3ccc(C4(N)CCC4)cc3)c(-c3ccccc3)cc2n1 [Example 1-1, hydrochloride] | 4.76
30. C=Cc1c(C)nc2cc(-c3ccccc3)c(-c3ccc(C4(N)CCC4)cc3)nn12 | 5.05
31. Cc1nc2cc(-c3ccccc3)c(-c3ccc(C4(N)CCC4)cc3)nn2c1-c1ccc(C(N)=O)cc1 | 4.92

----------
Target: His-tagged human recombinant kinase full-length Akt2 (Homo sapiens (Human), UniProt P31751)
Sequence (P31751 whole entry): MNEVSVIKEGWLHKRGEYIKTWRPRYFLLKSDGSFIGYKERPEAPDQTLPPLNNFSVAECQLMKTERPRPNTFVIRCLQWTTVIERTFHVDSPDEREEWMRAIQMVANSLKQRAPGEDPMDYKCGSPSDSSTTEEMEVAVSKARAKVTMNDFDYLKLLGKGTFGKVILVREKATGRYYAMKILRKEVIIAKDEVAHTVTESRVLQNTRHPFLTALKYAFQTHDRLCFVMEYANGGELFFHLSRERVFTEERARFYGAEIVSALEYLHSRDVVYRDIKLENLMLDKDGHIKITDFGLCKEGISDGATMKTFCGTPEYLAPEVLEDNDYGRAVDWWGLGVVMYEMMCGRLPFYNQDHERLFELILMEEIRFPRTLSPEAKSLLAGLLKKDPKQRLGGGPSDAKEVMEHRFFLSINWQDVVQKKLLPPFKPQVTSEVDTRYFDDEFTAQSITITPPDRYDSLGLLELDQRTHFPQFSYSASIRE
Experiment: Akt2 kinase assay (TR-FRET)
Format: biochemical
Conditions: 10 μM ATP; median
Counter-ions that a name gives are not always drawn.
# IC50 annotations
ASSAY READOUT: IC50 (nM)

1. NC1(c2ccc(-c3nn4c(-c5ccc(F)cc5)c(Br)nc4cc3-c3ccccc3)cc2)CCC1 | 41
2. Cc1nc2cc(-c3ccccc3)c(-c3ccc(C4(N)CCC4)cc3)nn2c1-c1ccn[nH]1 | 5230
3. Cc1nc2cc(-c3ccccc3)c(-c3ccc(C4(N)CCC4)cc3)nn2c1-c1ccc(F)cc1 | 5110
4. NC1(c2ccc(-c3nn4c(-c5ccc(O)nc5)cnc4cc3-c3ccccc3)cc2)CCC1 | 431
5. Cc1cnc2cc(-c3ccccc3)c(-c3ccc(C4(N)CCC4)cc3)nn12 | 1730
6. NC1(c2ccc(-c3nn4c(-c5ccc(S(N)(=O)=O)cc5)cnc4cc3-c3ccccc3)cc2)CCC1 | 151
7. CCOC(=O)c1cncc(-c2cnc3cc(-c4ccccc4)c(-c4ccc(C5(N)CCC5)cc4)nn23)c1 | 110
8. NC(=O)/C=C/c1cnc2cc(-c3ccccc3)c(-c3ccc(C4(N)CCC4)cc3)nn12 | 222
9. NC1(c2ccc(-c3nn4c(Br)cnc4cc3-c3ccccc3)cc2)CCC1 [Example 4-8, hydrochloride] | 264
10. Cc1cc(-c2c(C)nc3cc(-c4ccccc4)c(-c4ccc(C5(N)CCC5)cc4)nn23)[nH]n1 | 17200

----------
# pIC50 annotations
Target: His-tagged human recombinant kinase full-length Akt2 (Homo sapiens (Human))
Test: Akt2 kinase assay (TR-FRET)
Conditions: 10 μM ATP; median
pIC50: −log10 of the molar value.
ASSAY READOUT: pIC50

1. NC1(c2ccc(-c3nn4c(-c5cn[nH]c5)cnc4cc3-c3ccccc3)cc2)CCC1 [Example 4-12] | 7.17
2. NC1(c2ccc(-c3nn4c(-c5ccc(F)cc5)cnc4cc3-c3ccccc3)cc2)CCC1 [Example 4-3] | 7.09
3. COc1cncc(-c2cnc3cc(-c4ccccc4)c(-c4ccc(C5(N)CCC5)cc4)nn23)c1 [Example 4-18] | 7.34
4. C=Cc1cnc2cc(-c3ccccc3)c(-c3ccc(C4(N)CCC4)cc3)nn12 [Example 9-0] | 6.49
5. N#Cc1cccc(-c2cnc3cc(-c4ccccc4)c(-c4ccc(C5(N)CCC5)cc4)nn23)c1 [Example 3-0] | 7.09
6. Cc1nc2cc(-c3ccccc3)c(-c3ccc(C4(N)CCC4)cc3)nn2c1-c1ccc(C(N)=O)cc1 [Example 5-4] | 5.32
7. NC1(c2ccc(-c3nn4c(-c5ccc6cn[nH]c6c5)cnc4cc3-c3ccccc3)cc2)CCC1 [Example 4-16] | 7.66
8. NC1(c2ccc(-c3nn4c(-c5cccc(CO)c5)cnc4cc3-c3ccccc3)cc2)CCC1 [Example 4-5] | 7.43

----------
Biological target: His-tagged human recombinant kinase full-length Akt2 (Homo sapiens (Human), UniProt P31751)
Assay: Akt2 kinase assay (TR-FRET)
Conditions: 10 μM ATP; median
pIC50: −log10 of the molar value.
# pIC50 annotations
ASSAY READOUT: pIC50

1. C=Cc1c(C)nc2cc(-c3ccccc3)c(-c3ccc(C4(N)CCC4)cc3)nn12 | 4.78
2. N#Cc1ccc(-c2cnc3cc(-c4ccccc4)c(-c4ccc(C5(N)CCC5)cc4)nn23)cc1 | 6.87
3. NC1(c2ccc(-c3nn4c(-c5ccc(F)cc5)c(Cl)nc4cc3-c3ccccc3)cc2)CCC1 | 6.97
4. Cc1nc2cc(-c3ccccc3)c(-c3ccc(C4(N)CCC4)cc3)nn2c1/C=C/C(N)=O | 4.70

----------
Target: His-tagged human recombinant kinase full-length Akt2 (Homo sapiens (Human))
Assay: Akt2 kinase assay (TR-FRET)
Details: 10 μM ATP; median
Counter-ions that a name gives are not always drawn.
ASSAY READOUT: IC50 (µM)

1) NC1(c2ccc(-c3nn4c(-c5ccc(F)c(CO)c5)cnc4cc3-c3ccccc3)cc2)CCC1 [Example 4-9, hydrochloride] | 0.092
2) NC1(c2ccc(-c3nn4ccnc4cc3-c3ccccc3)cc2)CCC1 | 1.44
3) COC(=O)c1ccc(-c2cnc3cc(-c4ccccc4)c(-c4ccc(C5(N)CCC5)cc4)nn23)cn1 | 0.115
4) NC(=O)c1ccc(-c2cnc3cc(-c4ccccc4)c(-c4ccc(C5(N)CCC5)cc4)nn23)cc1 [Example 4-10, hydrochloride] | 0.118
5) NC1(c2ccc(-c3nn4c(-c5ccn[nH]5)cnc4cc3-c3ccccc3)cc2)CCC1 | 0.07
6) CS(=O)(=O)c1ccc(-c2cnc3cc(-c4ccccc4)c(-c4ccc(C5(N)CCC5)cc4)nn23)cc1 | 0.278
7) NC(=O)c1cccc(-c2cnc3cc(-c4ccccc4)c(-c4ccc(C5(N)CCC5)cc4)nn23)c1 [Example 4-11, hydrochloride] | 0.068
